# Tested on: PMA-differentiated THP-1 cells
# TEST_DESCRIPTION: hTHP-1 assay containing 10% fetal bovine serum (IL-1β production, Tables B5 and B6)
# Assay type: cell-based, human
# STATED_CONDITIONS: Homo sapiens, THP-1, read-out: hTHP-1 IC50 in 10% FBS, hTHP-1 assay containing 10% fetal bovine serum; Table B5
pIC50: −log10 of the molar value.

| COMPOUND | pIC50 |
| --- | --- |
| CC(C)(O)c1csc(S(N)(=O)=NC(=O)Nc2c3c(nc(C(F)(F)F)c2C2CC2)CCC3)c1F (centres unmarked) | 6.70 to 7.40 |
| C[C@@H]1CCc2c1nc1c(c2NC(=O)N=S(N)(=O)c2nn(C(C)(F)F)cc2F)CCC1 (some centres unmarked) | 7.40 to 8.10 |
| Cc1c(C(F)(F)F)nc2c(c1NC(=O)N=S(N)(=O)c1cnc(C(F)F)s1)CCC2 (centres unmarked) | 4.52 to 5.30 |
| CCn1cc(F)c([S@](N)(=O)=NC(=O)Nc2c(C)c(C(F)(F)F)nc3c2[C@H](C)CC3)n1 (single isomer, unassigned) [Compound 1100a] | 5.30 to 6.00 |
| CCn1cc(F)c([S@](N)(=O)=NC(=O)Nc2c(C)c(C(F)(F)F)nc3c2[C@@H](C)CC3)n1 (single isomer, unassigned) [Compound 1100b] | 6.70 to 7.40 |
| Cc1c(C(F)(F)F)nc2c(c1NC(=O)N=S(N)(=O)c1cnc(C(F)(F)F)s1)CCC2 (centres unmarked) | 4.52 to 5.30 |
| C[C@@H](O)Cn1cc(F)c(S(N)(=O)=NC(=O)Nc2c3c(nc4c2CCC42CC2)CCC3)n1 (some centres unmarked) | 7.40 to 8.10 |
| CC(C)(O)c1csc(S(N)(=O)=NC(=O)Nc2c3c(nc4c2CCC4)CCC3)c1F (centres unmarked) | 6.70 to 7.40 |
| C[C@@H]1CCc2c1nc1c(c2NC(=O)N=S(N)(=O)c2scc(C(C)(C)O)c2F)CCC1 (some centres unmarked) | 7.40 to 8.10 |
| Cc1c(C(F)(F)F)nc2c(c1NC(=O)N=S(N)(=O)c1nn(C(C)(F)F)cc1F)CCC2 (centres unmarked) | 6.00 to 6.70 |
| CC(C)n1cc(F)c(S(N)(=O)=NC(=O)Nc2c3c(nc4c2CCC42CC2)CCC3)n1 (centres unmarked) | 7.40 to 8.10 |

###

# Tested on: PMA-differentiated THP-1 cells
# TEST_DESCRIPTION: hTHP-1 assay containing 10% fetal bovine serum (IL-1β production, Tables B5 and B6)
# Assay type: cell-based, human
# STATED_CONDITIONS: read-out: hTHP-1 IC50 in 10% FBS; hTHP-1 assay containing 10% fetal bovine serum; Table B6

| COMPOUND | IC50 |
| --- | --- |
| C[C@@H]1CCc2c1nc1c(c2NC(=O)N=S(N)(=O)c2nn(C3CC3)cc2F)CCC1 (single isomer, unassigned) [Example 868] | 0.2 to 1 µM |
| Cc1c(C(F)(F)F)nc2c(c1NC(=O)N=S(N)(=O)c1nn(C3CC3)cc1F)CCC2 (single isomer, unassigned) [Example 869] | 0.008 to 0.04 µM |
| C[C@@H]1CCc2c1nc1c(c2NC(=O)N=S(N)(=O)c2nn(C3CC3)cc2F)CCC1 (single isomer, unassigned) [Example 867] | < 0.008 µM |
| Cc1c(C(F)(F)F)nc2c(c1NC(=O)N=S(N)(=O)c1nn(C3CC3)cc1F)CCC2 (single isomer, unassigned) [Example 870] | 1 to 5 µM |
| NS(=O)(=NC(=O)Nc1c2c(nc3c1CCC3)CCC2)c1nn(C2CC2)cc1F (single isomer, unassigned) [Example 864] | 0.2 to 1 µM |
| NS(=O)(=NC(=O)Nc1c2c(nc3c1CCC31CC1)CCC2)c1nn(C2CC2)cc1F (single isomer, unassigned) | 0.04 to 0.2 µM |
| NS(=O)(=NC(=O)Nc1c2c(nc3c1CCC3)CCC2)c1nn(C2CC2)cc1F (single isomer, unassigned) [Example 863] | 0.04 to 0.2 µM |

###

# Tested on: PMA-differentiated THP-1 cells
# TEST_DESCRIPTION: hTHP-1 assay containing 10% fetal bovine serum (IL-1β production, Tables B5 and B6)
# Format: cell-based, human
# STATED_CONDITIONS: read-out: hTHP-1 IC50 in 10% FBS; hTHP-1 assay containing 10% fetal bovine serum; Table B5; listed as 829
pIC50: −log10 of the molar value.
MEASURE: pIC50

| COMPOUND | RESULT |
| --- | --- |
| Cc1c(C(F)(F)F)nc2c(c1NC(=O)N=S(N)(=O)c1cnc(C(F)F)s1)CCC2 (single isomer, unassigned) [Compound 1007a] | 5.30 to 6.00 |

###

# System: PMA-differentiated THP-1 cells
# TEST_DESCRIPTION: hTHP-1 assay containing 10% fetal bovine serum (IL-1β production, Tables B5 and B6)
# Format: cell-based, human
# STATED_CONDITIONS: Homo sapiens, THP-1, read-out: hTHP-1 IC50 in 10% FBS, 10% fetal bovine serum; Table B5, value printed as a bound, not a class symbol
# Experimental: The following protocol is suitable for testing the activity of the compounds disclosed herein. Procedure 1: IL-1β Production in PMA-Differentiated THP-1 Cells Stimulated with Gramicidin. […] THP-1 cells were treated with PMA (Phorbol 12-myristate 13-acetate) (20 ng/ml) for 16-18 hours. […] Cell free supernatant (40 μL) was collected using a 96—CHannel PlateMaster (Gilson) and the production of IL-1β was evaluated by HTRF (cisbio). […]
pIC50: −log10 of the molar value.

| COMPOUND | pIC50 |
| --- | --- |
| CCn1cc(F)c(S(N)(=O)=NC(=O)Nc2c(C)c(C(F)(F)F)nc3c2C(C)CC3)n1 (single isomer, unassigned) [Compound 1100d] | < 4.52 |

###

# Tested on: PMA-differentiated THP-1 cells
# TEST_DESCRIPTION: hTHP-1 assay containing 10% fetal bovine serum (IL-1β production, Tables B5 and B6)
# Assay type: cell-based, human
# STATED_CONDITIONS: read-out: hTHP-1 IC50 in 10% FBS; hTHP-1 assay containing 10% fetal bovine serum; Table B5; listed as 844
# Experimental: The following protocol is suitable for testing the activity of the compounds disclosed herein. Procedure 1: IL-1β Production in PMA-Differentiated THP-1 Cells Stimulated with Gramicidin. […] THP-1 cells were treated with PMA (Phorbol 12-myristate 13-acetate) (20 ng/ml) for 16-18 hours. […] Cell free supernatant (40 μL) was collected using a 96—CHannel PlateMaster (Gilson) and the production of IL-1β was evaluated by HTRF (cisbio). […]
MEASURE: IC50

| MOLECULE | RESULT |
| --- | --- |
| Cc1nc2c(c(NC(=O)N=S(N)(=O)c3scc(C(C)(C)O)c3F)c1-c1ccccc1)CCC2 (single isomer, unassigned) [Compound 1110a] | 200 to 1000 nM |

###

# Tested on: PMA-differentiated THP-1 cells
# TEST_DESCRIPTION: hTHP-1 assay containing 10% fetal bovine serum (IL-1β production, Tables B5 and B6)
# Format: cell-based, human
# STATED_CONDITIONS: read-out: hTHP-1 IC50 in 10% FBS; hTHP-1 assay containing 10% fetal bovine serum; Table B5; listed as 849
# Procedure: The following protocol is suitable for testing the activity of the compounds disclosed herein. Procedure 1: IL-1β Production in PMA-Differentiated THP-1 Cells Stimulated with Gramicidin. […] THP-1 cells were treated with PMA (Phorbol 12-myristate 13-acetate) (20 ng/ml) for 16-18 hours. […] Cell free supernatant (40 μL) was collected using a 96—CHannel PlateMaster (Gilson) and the production of IL-1β was evaluated by HTRF (cisbio). […]
pIC50: −log10 of the molar value.

| COMPOUND | pIC50 |
| --- | --- |
| CCn1cc(F)c(S(N)(=O)=NC(=O)Nc2c3c(nc(C)c2C(F)(F)F)CCC3)n1 (single isomer, unassigned) [Compound 1116b] | 5.30 to 6.00 |

###

# System: PMA-differentiated THP-1 cells
# TEST_DESCRIPTION: hTHP-1 assay containing 10% fetal bovine serum (IL-1β production, Tables B5 and B6)
# Type: cell-based, human
# STATED_CONDITIONS: read-out: hTHP-1 IC50 in 10% FBS; hTHP-1 assay containing 10% fetal bovine serum; Table B5; listed as 819
pIC50: −log10 of the molar value.
MEASURE: pIC50

| MOLECULE | MEASURE | RESULT |
| --- | --- | --- |
| CCn1cc(F)c(S(N)(=O)=NC(=O)Nc2c(C)c(C(F)(F)F)nc3c2C(C)CC3)n1 (single isomer, unassigned) [Compound 1100c] | pIC50 | 4.52 to 5.30 |
